Origin of values: patent US5180742A

Hi there, I'd appreciate the recorded % Inhibition of LTD4-induced bronchoconstriction for every entry that follows.
test system: LTD4-induced bronchoconstriction; assay: Effect on LTD4-induced bronchoconstriction in guinea pigs; assay type: in vivo; conditions: 5 mg/kg, 1 hr. before LTD4
Number only, in %; omit the unit.

# input Give recorded % Inhibition of LTD4-induced bronchoconstriction with LTD4-induced bronchoconstriction for the following compound: CC1=C(C)C(=O)C(C(CCCCCC(=O)O)c2ccccc2)=C(C)C1=O (centres unmarked) [Compound No. 50]
# output 94

# input Observed % Inhibition of LTD4-induced bronchoconstriction on LTD4-induced bronchoconstriction for CC1=C(C)C(=O)C(C(CCCCCC(=O)O)c2ccc(F)cc2)=C(C)C1=O (centres unmarked) [Compound No. 87] , please.
# output 93

# input Test system LTD4-induced bronchoconstriction; read-out % Inhibition of LTD4-induced bronchoconstriction; what value for CC1=C(C)C(=O)C(C(CCCCCC(=O)O)c2ccc(C)cc2)=C(C)C1=O (centres unmarked) [Compound No. 93] ?
# output 85

# input Checklist item: % Inhibition of LTD4-induced bronchoconstriction tested on LTD4-induced bronchoconstriction, entry COc1ccc(C(CCCCCC(=O)O)C2=C(C)C(=O)C(C)=C(C)C2=O)cc1 (centres unmarked) [compound 23] , value?
# output 68

# input Param readout = % Inhibition of LTD4-induced bronchoconstriction; param system = LTD4-induced bronchoconstriction; param query = COc1ccc(C(CCCCC(=O)O)C2=C(C)C(=O)C(C)=C(C)C2=O)cc1 (centres unmarked) [Compound No. 22] ; response: value
# output 90

====

biological target: 5-Lipoxygenase (Rattus norvegicus, UniProt P12527); construct: endogenous in cells; assay: 5-Lipoxygenase inhibitory activity: 5-HETE production in RBL-1 cells (HPLC); settings: arachidonic acid + A 23187, 37° C., 20 minutes, read-out: 5-HETE production inhibiting effect (IC50)
Sequence (P12527 whole entry): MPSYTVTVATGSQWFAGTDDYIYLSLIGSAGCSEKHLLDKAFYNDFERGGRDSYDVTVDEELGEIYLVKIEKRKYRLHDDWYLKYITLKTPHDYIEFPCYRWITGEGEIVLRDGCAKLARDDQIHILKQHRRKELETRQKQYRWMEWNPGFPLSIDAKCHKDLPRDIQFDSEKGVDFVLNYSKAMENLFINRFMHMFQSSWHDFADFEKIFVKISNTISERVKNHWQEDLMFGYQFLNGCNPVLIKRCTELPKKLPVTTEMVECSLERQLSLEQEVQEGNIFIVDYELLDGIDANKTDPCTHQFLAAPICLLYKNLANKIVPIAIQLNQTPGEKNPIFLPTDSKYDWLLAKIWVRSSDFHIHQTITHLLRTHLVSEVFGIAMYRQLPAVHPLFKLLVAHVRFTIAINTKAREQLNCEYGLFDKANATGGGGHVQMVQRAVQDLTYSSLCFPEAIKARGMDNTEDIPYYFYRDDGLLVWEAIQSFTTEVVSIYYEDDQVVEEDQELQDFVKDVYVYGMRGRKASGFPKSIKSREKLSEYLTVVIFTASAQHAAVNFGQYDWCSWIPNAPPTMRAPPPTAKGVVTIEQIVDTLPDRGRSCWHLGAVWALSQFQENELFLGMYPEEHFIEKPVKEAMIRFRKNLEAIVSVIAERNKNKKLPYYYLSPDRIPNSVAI
Would you mind telling me the reported IC50 of each entry?
Give your result in nM as a bare value.

# input // lookup IC50 | system=5-Lipoxygenase (Rattus norvegicus, UniProt P12527) | key= COC1=C(OC)C(=O)C(C(CCCCC(=O)O)c2ccccc2)=C(C)C1=O (centres unmarked) [compound 16]
# output 32

# input Query the reported IC50 for 5-Lipoxygenase (Rattus norvegicus, UniProt P12527); item: CCOC(=O)CCCCC(C1=C(C)C(=O)C(OC)=C(OC)C1=O)c1cccs1 (centres unmarked) [Compound No. 6]
# output 28

# input Look up IC50 with 5-Lipoxygenase (Rattus norvegicus, UniProt P12527) for this molecule: CC1=C(C)C(=O)C(C(CCCO)c2ccccc2)=C(C)C1=O (centres unmarked) [compound 46]
# output 730

# input Give IC50 (5-Lipoxygenase (Rattus norvegicus, UniProt P12527)) of the following molecule: CC1=C(C)C(=O)C(C(CCCCCC(=O)O)c2ccc(F)cc2)=C(C)C1=O (centres unmarked) [Compound No. 87]
# output 100

# input Item: CCOC(=O)CCCCC(C1=C(C)C(=O)C(C)=C(C)C1=O)c1cccs1 (centres unmarked) [Compound No. 1] Test system: 5-Lipoxygenase (Rattus norvegicus, UniProt P12527) Read-out: IC50 Value: ?
# output 80

# input Quick check: IC50 on 5-Lipoxygenase (Rattus norvegicus, UniProt P12527), item CC1=C(C)C(=O)C(C(CCCCC(=O)O)c2ccccc2)=C(C)C1=O (centres unmarked) [Compound No. 10] ?
# output 34

# input Please state recorded IC50 (tested on 5-Lipoxygenase (Rattus norvegicus, UniProt P12527)) of CC1=C(C)C(=O)C(C(CCCCCCCCC(=O)O)c2ccccc2)=C(C)C1=O (centres unmarked) [Compound No. 11]
# output 34

# input # returns recorded IC50 (system: 5-Lipoxygenase (Rattus norvegicus, UniProt P12527)) for CCOC(=O)CCCCC(C1=C(C)C(=O)c2ccccc2C1=O)c1ccccc1 (centres unmarked) [Compound No. 5]
# output 30

====

biological target: 5-Lipoxygenase (Rattus norvegicus, UniProt P12527); construct: endogenous in cells; assay: 5-Lipoxygenase inhibitory activity: 5-HETE production in RBL-1 cells (HPLC); settings: arachidonic acid + A 23187, 37° C., 20 minutes, read-out: 5-HETE production inhibiting effect (IC50)
Kindly state IC50 for each of the entries shown.
Your answer should be a plain number; it is taken to be in nM.

# input Fill blank: measured IC50 of the compound COc1ccc(C(CCCCCC(=O)O)C2=C(C)C(=O)C(C)=C(C)C2=O)cc1 (centres unmarked) is ____.
# output 10

# input Name the recorded IC50 for COC1=C(OC)C(=O)C(C(CCCCCCC(=O)O)c2ccccc2)=C(C)C1=O (centres unmarked) .
# output 200

# input For the compound CC1=C(C)C(=O)C(C(CCCCCCC(=O)O)c2ccccc2)=C(C)C1=O (centres unmarked) , what IC50 is on record?
# output 32

# input Please look up its IC50: COC1=C(OC)C(=O)C(C(CCCCCCO)c2ccccc2)=C(C)C1=O (centres unmarked)
# output 62

# input What value of IC50 has been recorded for this entry: CC1=C(C(CCCCCCCCC(=O)O)c2ccccc2)C(=O)c2ccccc2C1=O (centres unmarked)
# output 50

# input Entry under review: CCOC(=O)CCCCC(C1=C(C)C(=O)c2ccccc2C1=O)c1cccs1 (centres unmarked) . Reported IC50?
# output 60

# input Which measured IC50 value corresponds to CC1=C(C(CCCCC(=O)O)c2cccs2)C(=O)c2ccccc2C1=O (centres unmarked) ?
# output 80

# input // query IC50 value for entry CC1=C(C)C(=O)C(C(CCCCCC(=O)O)c2ccc(C)cc2)=C(C)C1=O (centres unmarked)
# output 90

====

system: LTD4-induced bronchoconstriction; test: Effect on LTD4-induced bronchoconstriction in guinea pigs; format: in vivo; settings: 1.25 mg/kg, 1 hr. before LTD4
In plain terms, low % Inhibition of LTD4-induced bronchoconstriction, meaning strictly below 80%, gives T, and everything else gives F.

# input Is % Inhibition of LTD4-induced bronchoconstriction strictly under 80% for the entry CC1=C(C)C(=O)C(C(CCCCCC(=O)O)c2ccc(F)cc2)=C(C)C1=O (centres unmarked) ?
# output F

# input Report whether reported % Inhibition of LTD4-induced bronchoconstriction is lower than 80% (strictly) for COc1ccc(C(CCCCC(=O)O)C2=C(C)C(=O)C(C)=C(C)C2=O)cc1 (centres unmarked)
# output F

# input In plain terms, does CC1=C(C)C(=O)C(C(CCCCCC(=O)O)c2ccc(C)cc2)=C(C)C1=O (centres unmarked) come in under 80% for % Inhibition of LTD4-induced bronchoconstriction?
# output F

# input Regarding CC1=C(C)C(=O)C(C(CCCCCC(=O)O)c2ccccc2)=C(C)C1=O (centres unmarked) , kindly confirm whether its % Inhibition of LTD4-induced bronchoconstriction is beneath 80%.
# output T
